Value source: ChEMBL document CHEMBL1201862

tested on: SF-295; assay: NCI tumour cell line growth inhibition, 48 h
Activity calls are given as the source filed them. Cut-off read from the data, not from the text of the source: active = GI50 up to about 1.1 µM and inactive = higher.
Returns: one label drawn from yes (1) = active, no (0) = inactive

Examples with answers:
{"molecule": "CCOc1ccc(/C=C2\\N=C(c3ccc([N+](=O)[O-])cc3)OC2=O)cc1", "label_value": "no (0)"}
{"molecule": "S=C1CC(c2ccccc2)Sc2ccc(Cl)cc2N1 (stereo not drawn)", "label_value": "no (0)"}
{"molecule": "CC(C)=NC(C(=O)O)C(C)(C)S (stereo not drawn)", "label_value": "no (0)"}

Lab note: next molecule to report on.
Any idea what this test logged for O=S1(=O)Cc2ccc3c4c2-c2c(ccc5ccc(c-4c25)CS(=O)(=O)C3)C1 ? no (0)

----------
test system: SK-MEL-5; assay: NCI tumour cell line growth inhibition, 48 h
Calls of active or inactive are those of the source. No stated cut-off is given here; in the data, active = GI50 up to about 1.1 µM and inactive = higher.
recorded_endpoint: GI50

{"compound": "CN1CCC2(CC1)C(=O)N(NC(N)=O)C(=O)C2c1ccccc1 (stereo unspecified)", "target_under_test": "SK-MEL-5", "value_reported": "> 100 µM (inactive)"}
{"compound": "COC(=O)/C=C\\Sc1ccn(/C=C\\C(=O)OC)c(=S)n1", "target_under_test": "SK-MEL-5", "value_reported": "24.1 µM (inactive)"}
{"compound": "CN(C)CCSS(=O)(=O)O", "target_under_test": "SK-MEL-5", "value_reported": "> 100 µM (inactive)"}
{"compound": "O=C(CCC(=O)Nc1ccc(Cl)c(Cl)c1)CC(=O)c1ccc(F)cc1", "target_under_test": "SK-MEL-5", "value_reported": "> 100 µM (inactive)"}

In one line, give reported GI50 of the entry CC1=NNC(=O)C1C1CC(c2c[nH]c3ccccc23)=NN=C1Cl (stereo unspecified) . 42.8 µM (inactive)

In one line, give reported GI50 of the entry CC(=O)c1ccc(Oc2c3ccccc3nc3ccccc23)cc1 . 14.9 µM (inactive)

In one line, give reported GI50 of the entry O=C1CCC(=O)N1Cc1ccccc1/N=[N+](\[O-])c1ccccc1CN1C(=O)CCC1=O . > 100 µM (inactive)

In one line, give reported GI50 of the entry Cc1cc(C)c(C[C@H]2COC(=O)[C@]2(O)Cc2c(C)cc(C)cc2C)c(C)c1 . 17 µM (inactive)

In one line, give reported GI50 of the entry CCOP(=O)(OCC)C(Nc1ccc(F)cc1)c1cccc([N+](=O)[O-])c1 (stereo unspecified) . 83.9 µM (inactive)

In one line, give reported GI50 of the entry O=c1ccn(/C=C/C(O)C(O)CO)c(=O)[nH]1 (stereo unspecified) . > 100 µM (inactive)

In one line, give reported GI50 of the entry CC(=O)O[C@H]1CC[C@@]2(C)C(=CC[C@@H]3[C@@H]2CC[C@]2(C)NC(=O)/C(=C\c4ccccc4)C[C@@H]32)C1 . 10.8 µM (inactive)

In one line, give reported GI50 of the entry CS(=O)(=O)Nc1ccc2c(c1)N(S(C)(=O)=O)CC2CCl (stereo unspecified) . > 100 µM (inactive)

In one line, give reported GI50 of the entry Cc1ccc(C(=O)/C=C2\Nc3cccnc3NC2=O)cc1 . > 100 µM (inactive)

In one line, give reported GI50 of the entry COc1cc2c(cc1OC)C1(c3ccccc3)ON=C(c3ccccc3)N1CS2 (stereo unspecified) . > 100 µM (inactive)

In one line, give reported GI50 of the entry N=C(N)/N=C(/C=C/c1ccccc1)CC1OC(=O)c2ccccc21 (stereo unspecified) . > 100 µM (inactive)

In one line, give reported GI50 of the entry O=[N+]([O-])c1cc(Cl)ccc1S(=O)(=O)c1ccc(Cl)cc1[N+](=O)[O-] . 14.6 µM (inactive)

In one line, give reported GI50 of the entry Cc1cccc2c1Oc1cc(Cl)ccc1C2NC(=O)CCN1CCCCC1 (stereo unspecified) . 14.9 µM (inactive)

In one line, give reported GI50 of the entry CC(C)CC(=O)CC(O)C(Cl)(Cl)Cl (stereo unspecified) . > 100 µM (inactive)

In one line, give reported GI50 of the entry CCCC(=O)NC(Nc1ccc(S(=O)(=O)Nc2cc(C)on2)cc1)(C(=O)OCC)C(F)(F)F (stereo unspecified) . > 100 µM (inactive)

----------
The molecules listed here are annotated with their GI50.
tested on: TK-10; assay: NCI tumour cell line growth inhibition, 48 h
Activity calls are given as the source filed them. Rule as the data show it: active = GI50 up to about 1.1 µM and inactive = higher.

{"molecule": "O=c1cc(NNCc2ccccc2)[nH]c(=O)[nH]1", "target_under_test": "TK-10", "GI50": "> 100 µM (inactive)"}

In one line, give reported GI50 of the entry Cc1ccccc1C1SCc2nc3ccccc3n21 (stereo not given) . > 100 µM (inactive)

In one line, give reported GI50 of the entry c1cc(CSP234N5CCN2CCN3CCN4CC5)cc(CSP234N5CCN2CCN3CCN4CC5)c1 . 26.3 µM (inactive)

In one line, give reported GI50 of the entry COC(O)C12OC3CO[Si](C(C)C)(C(C)C)O[Si](C(C)C)(C(C)C)OC3C1Oc1nc(=O)ccn12 (stereo not given) . 14.3 µM (inactive)

In one line, give reported GI50 of the entry COc1ccccc1Cn1[nH]c(=O)c2cc([N+](=O)[O-])ccc21 . > 100 µM (inactive)

In one line, give reported GI50 of the entry C(=N\N=C1NCCCCN1)/c1ccc2ccccc2c1 . 37.9 µM (inactive)

----------
tested on: SK-MEL-2; test: NCI tumour cell line growth inhibition, 48 h
The source made the active and inactive calls. Rule as the data show it: active = GI50 up to about 1.1 µM and inactive = higher.
The compounds listed here are annotated with their GI50.

Worked set:
{"compound": "CCOP(=O)(OCC)C(Nc1ccc(F)cc1)c1cccc([N+](=O)[O-])c1 (stereo unspecified)", "value_reported": "49.7 µM (inactive)"}
{"compound": "O=C1C(CO)=C[C@H](O)[C@H]2O[C@@H]12", "value_reported": "130 µM (inactive)"}
{"compound": "CCN1C(=O)C(=C/C=C/c2ccc([N+](=O)[O-])cc2)C(=O)N(CC)C1=S", "value_reported": "23.8 µM (inactive)"}
{"compound": "CCOC(=O)/C(O)=C(/C(=O)OC)c1ccc(Cl)cc1", "value_reported": "> 100 µM (inactive)"}
{"compound": "COc1cc(O)c2c(O)c3c(=O)oc(C)cc3c(OC)c2c1 [PAEPALANTINE]", "value_reported": "31.9 µM (inactive)"}
{"compound": "Cc1ccc(O)c(C(=O)/C=C/c2ccccc2)c1", "value_reported": "> 100 µM (inactive)"}
{"compound": "CCCCOP1(=O)CC(C)=C(Cl)C(C)(OC)C1 (stereo unspecified)", "value_reported": "41 µM (inactive)"}
{"compound": "Cc1ccc(Cc2c(=O)[nH]nc3ccccc23)cc1", "value_reported": "> 100 µM (inactive)"}

In one line, give reported GI50 of the entry O=C1C(Cl)=C(Cl)C(=O)C2=C1C1c3ccccc3C2c2ccccc21 . > 100 µM (inactive)

In one line, give reported GI50 of the entry Cc1cn(C2CC(O)C(CO)O2)c(=O)[nH]c1=O (stereo unspecified) . 3880 µM (inactive)

----------
system: RXF 393; test: NCI tumour cell line growth inhibition, 48 h
Active and inactive are the calls of the source. Cut-off read from the data, not from the text of the source: active = GI50 up to about 1.1 µM and inactive = higher.
The molecules listed here are annotated with their GI50.

Worked set:
{"molecule": "CC1(C)CC2(C)ON=C(c3ccccc3)N2c2ccccc2N1 (stereo not given)", "value_reported": "20.8 µM (inactive)"}
{"molecule": "O=C(O)C1CC2CC(=O)C1C2 (stereo not given)", "value_reported": "> 100 µM (inactive)"}
{"molecule": "O=C(O)c1c2c(c(O)c3c1CN(C1CCCCC1)CO3)OCN(C1CCCCC1)C2", "value_reported": "63.4 µM (inactive)"}
{"molecule": "O=C1CCC[C@]2(CCC[C@@H](O)C2)N1", "value_reported": "> 100 µM (inactive)"}
{"molecule": "COc1ccc(/C=C\\c2cc(OC)c(OC)c(OC)c2)cc1OC(=O)NCCN(C)C", "value_reported": "< 0.0001 µM (active)"}
{"molecule": "COc1ccc(C[P+]2(c3ccccc3)CCCCC2)cc1.O=[N+]([O-])c1ccc(C[P+]2(c3ccccc3)CCCCC2)cc1.[O-][Cl+3]([O-])([O-])[O-].[O-][Cl+3]([O-])([O-])[O-]", "value_reported": "95.9 µM (inactive)"}
{"molecule": "CNC(=O)c1ccccc1[S+]1c2cccc3cccc(c23)C(=O)N1C (stereo not given)", "value_reported": "> 100 µM (inactive)"}
{"molecule": "NCCOCCOCC(=O)O", "value_reported": "> 100 µM (inactive)"}

In one line, give reported GI50 of the entry C/C(=N\NC(=[Se])N1CCN(c2ccccn2)CC1)c1ccccn1 . 0.0352 µM (active)

In one line, give reported GI50 of the entry COc1ccc(-c2c3c(nc4nc(SCC(=O)c5ccc(Br)cc5)nc(N)c24)CCCC3)cc1OC . 19.3 µM (inactive)
